Provenance of the data: PubChem BioAssay AID2060617

System: 485368-065-R4-J2-PDC spheroids with HUVEC/MSC, viability;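 further: spheroids exposed to compounds for seven days; 100% = DMSO vehicle control wells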
Assay: Anticancer human tumor 485368-065-R4-J2-PDC patient-derived pancreatic carcinoma cell line growth inhibition [CLK]
Conditions: second compound 0.1 µM; first compound 0.00949 µM; active compounds read low
Source text: A high-throughput screen of multi-cell type tumor spheroids was designed to identify active combinations of […] and targeted small molecules. Complex spheroids include a stromal component modeled by human endothelial cells (HUVEC) and fibroblasts modeled by human mesenchymal stem cells (MSCs). […] Compounds. […] If the clinical Cmax for an agent had not been determined, the highest concentration tested was 10 microM. […]
attribute measured: viability, T/C (%)

>>> experimental_value("C=CC(=O)Nc1cc(Nc2nccc(-c3cn(C)c4ccccc34)n2)c(OC)cc1N(C)CCN(C)C + CNC(=O)c1ccc(Nc2nc(OC3CCCC3)c3c(-c4ccc5nc(C)oc5c4)c[nH]c3n2)c(OC)c1")
95.6
>>> experimental_value("NC(=O)C(=Cn1cnc(-c2cc(C(F)(F)F)cc(C(F)(F)F)c2)n1)c1cncnc1 + CN1CCN(c2cc(C(=O)Nc3cc4cc(-c5cnn(C)c5)ccc4cn3)ccn2)CC1")
109
>>> experimental_value("CC(C)CC(NC(=O)C(Cc1ccccc1)NC(=O)c1cnccn1)B(O)O (stereo not drawn) + CNC(=O)c1ccc(Nc2nc(OC3CCCC3)c3c(-c4ccc5nc(C)oc5c4)c[nH]c3n2)c(OC)c1")
32.5
